Cited source for all entries: the RNAGym collection of RNA variant scans (doi:10.7554/elife.80360)

B1: CPEB3 Ribozyme (parent)
chain: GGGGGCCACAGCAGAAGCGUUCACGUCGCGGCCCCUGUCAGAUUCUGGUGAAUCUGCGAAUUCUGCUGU

Variants of: B1
assay_protocol: self-cleavage, relative activity (ratio to wild type); higher = more cleavage; co-transcriptional
self-cleavage of 0.6 or higher: y. Under 0.6: n.

| variant_designation | category_label |
| --- | --- |
| A13C G68U | y |
| G28A G65U | n |
| G3A U36G | n |
| U36C U38C | y |
| U46G G58C | y |
| C45A A52G | y |
| C12G A16U | n |
| G1U U53C | n |
| U55G A60G | n |
| C9U G56U | y |
| G28C C54A | n |
| C18G C24G | n |
| C6A C29G | n |
| C29A U46C | y |
| U26A A51G | y |
| C27U G31C | n |
| A15U G48C | y |
| G28C G58U | n |
| G14A A15U | n |
| C7G U49C | n |
| G25C C33G | n |
| C18U G48A | y |
| G47C G48C | y |
| G31C U44C | n |
| G11C C66U | y |
| G11C A59G | y |
| C7G U38C | n |
| G14U G19C | n |
| A8G C34A | y |
| U20G A59C | n |
| C27U A42U | n |
| G25C G65A | n |
| G37A C66A | n |
| G30A U64A | y |
| C32A G50U | y |
| C29U U64A | n |
| U61A U62A | y |
| U21G G56C | n |
| G11C C45G | y |
| G58C U62G | y |
| A10C C18A | n |
| A23U C24G | n |
| U44A G48C | y |
| G1A A42C | n |
| C12G G19A | n |
| A59G C63U | y |
| U21A G30A | y |
| A16U G47C | y |
| C66A U69G | y |
| A15U C32U | y |
| G5U G58A | n |
| A15U A16G | n |
| C9A C22U | n |
| A8U G65A | y |
| U55G G68U | y |
| G3C U67C | n |
| U64A U69G | y |
| G11U C54U | y |
| C33U G58C | y |
| C18G U20A | n |
| G4U A15C | n |
| A51U G56C | n |
| U21A G65U | y |
| C18G C35A | n |
| U20C U44C | n |
| G5A U49G | y |
| G41C G48A | y |
| C34U A52G | y |
| U21A U64G | y |
| G25U U43C | n |
| G25C U53A | n |
| U44A A60G | y |
| G4A U49A | y |
| G14C C54A | n |
| G31U U44G | n |
| U53G U67C | y |
| G5U U55C | n |
| G1A G4U | n |
| C27U U53A | n |
| G17A A59U | n |
| G47U A52C | y |
| A42C A59G | y |
| U38A G56U | y |
| A15U U21A | y |
| C7U G37C | n |
| G4U C7G | n |
| U46C A51C | y |
| C27U A59G | n |
| A40C C54G | n |
